System: P. aeruginosa ATCC27853
Assay Protocol: Bacterial susceptibility testing (MIC, broth microdilution)
Format: cell-based
Study Conditions: Pseudomonas aeruginosa, ATCC27853, broth microdilution, cation adjusted Mueller-Hinton Broth, 35° C., 18-24 h; read-out: P. aeruginosa ATCC27853 MIC
Procedure: Minimal inhibitory concentrations (MIC) were determined by the broth microdilution method in accordance with the Clinical and Laboratory Standards Institute (CLSI) guidelines. […] Following incubation, the lowest concentration of the drug that prevented visible growth (OD600 nm<0.05) was recorded as the MIC. Performance of the assay was monitored by the use of laboratory quality -control strains and compounds with defined MIC spectrum, in accordance with CLSI guidelines.
Catalogue of MIC values
Form entry: value (µg/mL) — number only.

Please review the following examples before continuing.
Dear colleague, I am looking for the recorded MIC of the following compound: C[C@H](O)c1nccn1[C@@H](C#Cc1ccc(-c2ccc(OC3COC3)cc2)cc1)CO (single isomer, unassigned)
4

Look up MIC for this compound: CC1C(Oc2ccc(-c3ccc(C#C[C@@H](CO)n4ccnc4[C@H](C)O)cc3)cc2)CN1CC#N (mixture of isomers)
8

Let us move to another entry and its MIC.
I would be grateful if you could share the reported MIC for CO[C@H]1C[C@@H](c2ccc(-c3ccc(C#C[C@@H](CO)n4ccnc4[C@H](C)O)cc3)cc2)C1 (racemic) .
4

====

Tested on: P. aeruginosa ATCC27853
Assay Protocol: Bacterial susceptibility testing (MIC, broth microdilution)
Format: cell-based
Study Conditions: Pseudomonas aeruginosa, ATCC27853, broth microdilution, cation adjusted Mueller-Hinton Broth, 35° C., 18-24 h; read-out: P. aeruginosa ATCC27853 MIC
Attribute Measured: MIC (µg/mL)
Number only, in µg/mL; omit the unit.

Need MIC, item C[C@H](O)c1nccn1[C@@H](C#Cc1ccc(-c2ccc(O[C@H]3COC[C@@H]3O)c(F)c2)c(F)c1)CO (single isomer, unassigned)
8

Others:
Field request: MIC | item: C[C@H](O)c1nccn1[C@@H](C#Cc1ccc(-c2ccc(O[C@H]3COC[C@@H]3O)cc2Cl)cc1)CO (single isomer, unassigned)
4

Fill in: MIC of C[C@H](O)c1nccn1[C@@H](C#Cc1ccc(-c2ccc(O[C@H]3COC[C@@H]3O)cc2F)cc1)CO (single isomer, unassigned) is ___
4

Which MIC is listed for CC(=O)N[C@H]1C[C@H](c2ccc(-c3ccc(C#C[C@@H](CO)n4ccnc4[C@H](C)O)cc3)cc2)C1 (racemic) ?
1

Using the record for C[C@H](O)c1nccn1[C@@H](C#Cc1ccc(-c2ccc(O[C@@H]3COC[C@H]3O)cc2)c(F)c1)CO (racemic) , report its MIC.
4

Bench note: what MIC did C[C@H](O)c1nccn1[C@@H](C#Cc1ccc(-c2ccc(NC3COC[C@H]3O)cc2F)cc1)CO (single isomer, unassigned) show?
4

====

Tested on: P. aeruginosa ATCC27853
Assay Protocol: Bacterial susceptibility testing (MIC, broth microdilution)
Format: cell-based
Study Conditions: Pseudomonas aeruginosa, ATCC27853, broth microdilution, cation adjusted Mueller-Hinton Broth, 35° C., 18-24 h; read-out: P. aeruginosa ATCC27853 MIC
Attribute Measured: MIC

Use these answered entries as a reference point.
What value of MIC has been reported for the following compound? C[C@H](O)c1nccn1[C@@H](C#Cc1ccc(-c2ccc([C@@H]3COC[C@H]3O)cc2)cc1)CO (single isomer, unassigned)
4 µg/mL

Value lookup for MIC; key = C[C@H](O)c1nccn1[C@@H](C#Cc1ccc(-c2ccc(O[C@@H]3CCOC[C@H]3O)cc2)cc1)CO
8 µg/mL

Given the entry C[C@H](O)c1nccn1[C@@H](C#Cc1ccc(-c2ccc(N[C@@H]3COC[C@H]3O)c(F)c2)cc1)CO (single isomer, unassigned) , report its measured MIC.
4 µg/mL

Name the reported MIC value associated with the compound C[C@H](O)c1nccn1[C@@H](C#Cc1ccc(-c2ccc([C@H]3C[C@](N)(C#N)C3)cc2)cc1)CO (racemic)
4 µg/mL

What measured MIC goes with C[C@H](O)c1nccn1[C@@H](C#Cc1ccc(-c2ccc(O[C@H]3CCOC[C@@H]3O)c(F)c2)cc1)CO (single isomer, unassigned) ?
8 µg/mL

Now consider a different compound.
What value of MIC has been reported for the following compound? C[C@H](O)c1nccn1[C@@H](C#Cc1ccc(-c2ccc(O[C@H]3C[C@@H](NS(C)(=O)=O)C3)cc2)cc1)CO (racemic)
4 µg/mL
